These entries and their values trace back to the supplement of paper PMC9233669.

tested on: biotinyl-Ile-oxazolone; assay: self-aminoacylation, catalytic enhancement (BIO) (fold over background); higher = more active; k-Seq, kA / k0A0; sequences stand for … in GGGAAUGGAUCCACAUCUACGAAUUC…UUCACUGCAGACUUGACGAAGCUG
Fewer inactive variants are shown than the library holds.
sequences and their reported self-aminoacylation
Response field accepts a number only; no unit should be typed.

Worked examples follow.
{"columns": ["seq.string", "measurement.target", "self-aminoacylation"],
 "data": [
  ["AAUACCCUGGUAAUCGAGUGA [Fam2.1 aminoacylation ribozyme variant]", "biotinyl-Ile-oxazolone", 3.96],
  ["CUUCUUCAAACAAUCGGUAUG [Fam1A.1 aminoacylation ribozyme variant]", "biotinyl-Ile-oxazolone", 0.784],
  ["CUACUUCAAACAAUCGGCCUC [Fam1A.1 aminoacylation ribozyme variant]", "biotinyl-Ile-oxazolone", 1.8]
]}

Look up and report self-aminoacylation, with biotinyl-Ile-oxazolone as system, for AUUCACCUAGGUCAUCGGUUA [Fam2.2 aminoacylation ribozyme variant] 1.11
